This collection of values is drawn from patent US10722520B2.

For each record, write down the corresponding IC50.
# tgt: SHV-1 (Klebsiella pneumoniae)
Answers are plain numbers, in nM.

Examples from the recorded data:
compound="NCCONC(=O)c1cn(C2=CC3CN(C2)C(=O)N3OS(=O)(=O)O)nn1 (stereo not shown)" tgt="SHV-1 (Klebsiella pneumoniae)" readoutnumber=6.9
compound="O=C1N2CC(n3nccn3)=CC(C2)N1OS(=O)(=O)O (stereo not shown)" tgt="SHV-1 (Klebsiella pneumoniae)" readoutnumber=9.7
compound="O=C1N2CC(n3ccc([C@H](O)CO)n3)=CC(C2)N1OS(=O)(=O)[O-].[Na+] (stereo partly shown)" tgt="SHV-1 (Klebsiella pneumoniae)" readoutnumber=7.3

Quick request: IC50 for each listed item, please.
1. O=C1N2CC(n3cc(CO)cn3)=CC(C2)N1OS(=O)(=O)[O-].[Na+] (stereo not shown)
2. O=C(Nc1nncs1)c1ccn(C2=CC3CN(C2)C(=O)N3OS(=O)(=O)[O-])n1.[Na+] (stereo not shown)
3. [2H]c1nn(C2=CC3CN(C2)C(=O)N3OS(=O)(=O)[O-])c([2H])c1[2H].[Na+] (stereo not shown)
4. O=C1N2CC(n3cc(CNCCO)nn3)=CC(C2)N1OS(=O)(=O)O (stereo not shown)
5. O=C1N2CC(n3ccc(F)n3)=CC(C2)N1OS(=O)(=O)[O-].[Na+] (stereo not shown)
6. O=C1N2CC(n3cc(CO)nn3)=CC(C2)N1OS(=O)(=O)O (stereo not shown)
7. O=C(N[C@@H]1CCNC1)c1ccn(C2=CC3CN(C2)C(=O)N3OS(=O)(=O)O)n1 (stereo partly shown)
8. COc1cnn(C2=CC3CN(C2)C(=O)N3OS(=O)(=O)[O-])c1.[Na+] (stereo not shown)

Output line:
9.6
2.7
3.6
8.4
2.8
2.9
3.8
1.9

Quick request: IC50 for each listed item, please.
1. O=C(N[C@H]1CCNC1)c1ccn(C2=CC3CN(C2)C(=O)N3OS(=O)(=O)O)n1 (stereo partly shown)
2. O=C(CCO)Nc1ccn(C2=CC3CN(C2)C(=O)N3OS(=O)(=O)[O-])n1.[Na+] (stereo not shown)
3. CNCc1cn(C2=CC3CN(C2)C(=O)N3OS(=O)(=O)O)nn1 (stereo not shown)
4. NC(=O)CNCc1cn(C2=CC3CN(C2)C(=O)N3OS(=O)(=O)O)nn1 (stereo not shown)
5. O=C(Nc1ccccn1)c1ccn(C2=CC3CN(C2)C(=O)N3OS(=O)(=O)[O-])n1.[Na+] (stereo not shown)

Output line:
[4.9, 1.9, 2, 3.1, 1.4]

Quick request: IC50 for each listed item, please.
1. O=C(Nc1ncco1)c1ccn(C2=CC3CN(C2)C(=O)N3OS(=O)(=O)[O-])n1.[Na+] (stereo not shown)
2. O=C1N2CC(n3cncn3)=CC(C2)N1OS(=O)(=O)[O-].[Na+] (stereo not shown)
3. Nc1ncc(C(=O)Nc2ccn(C3=CC4CN(C3)C(=O)N4OS(=O)(=O)[O-])n2)s1.[Na+] (stereo not shown)
4. O=C(Nc1cc[nH]n1)c1ccn(C2=CC3CN(C2)C(=O)N3OS(=O)(=O)[O-])n1.[Na+] (stereo not shown)
5. NC(=O)Cc1ccn(C2=CC3CN(C2)C(=O)N3OS(=O)(=O)[O-])n1.[Na+] (stereo not shown)

Output line:
1: 3.2; 2: 4.4; 3: 3.2; 4: 1.6; 5: 4.5

====

Parameter 'readout' = IC50; parameter 'system' = TEM-1 (Escherichia coli).
Sequence (P62593 24-286 limits assumed): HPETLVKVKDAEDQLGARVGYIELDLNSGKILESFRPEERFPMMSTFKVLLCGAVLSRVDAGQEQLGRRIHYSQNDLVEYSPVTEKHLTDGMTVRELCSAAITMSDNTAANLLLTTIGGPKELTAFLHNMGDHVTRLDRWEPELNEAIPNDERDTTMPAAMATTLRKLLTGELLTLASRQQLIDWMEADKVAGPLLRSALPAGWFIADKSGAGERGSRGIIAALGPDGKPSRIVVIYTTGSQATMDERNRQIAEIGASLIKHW
Answers are plain numbers, in nM.

Examples from the recorded data:
compound="O=C1N2CC(n3cncn3)=CC(C2)N1OS(=O)(=O)[O-].[Na+] (stereo not drawn) [Example 5]" readoutnumber=0.8
compound="O=C1N2CC(n3ccnn3)=C[C@H](C2)N1OS(=O)(=O)O [Example 6]" readoutnumber=0.36

Now turn to the next compound.
Input line: Value lookup for IC50; key = NC(=O)c1ccn(C2=CC3CN(C2)C(=O)N3OS(=O)(=O)[O-])n1.[Na+] (stereo not drawn) [Example 19]
Output line: 0.38

====

For each record, write down the corresponding IC50.
# tgt: CTX-M-15 (Escherichia coli)
# recordedConditions: read-out: IC50 β-lactamase CTX-M-15; class (A); nitrocefin 200 μM, 30-min pre-incubation, enzyme 0.4 nM
Give bare numbers, in nM.

Examples from the recorded data:
compound="NCc1cn(C2=CC3CN(C2)C(=O)N3OS(=O)(=O)[O-])nn1.O=C(O)C(F)(F)F.[Na+] (stereo not shown)" experimentalendpoint=IC50 readoutnumber=0.75
compound="NC(=O)c1cc(F)n(C2=CC3CN(C2)C(=O)N3OS(=O)(=O)[O-])n1.[Na+] (stereo not shown)" experimentalendpoint=IC50 readoutnumber=1
compound="NCCNC(=O)Cc1ccn(C2=CC3CN(C2)C(=O)N3OS(=O)(=O)[O-])n1.O=C(O)C(F)(F)F.[Na+] (stereo not shown)" experimentalendpoint=IC50 readoutnumber=2.4

Now turn to the next compound.
Input line: Which IC50 is reported with CTX-M-15 (Escherichia coli) for this entry: O=C(O)C(F)(F)F.O=C1N2CC(n3ccc(CNc4nccs4)n3)=CC(C2)N1OS(=O)(=O)[O-].[Na+] (stereo not shown) ?
Output line: 0.5

====

Parameter 'readout' = IC50; parameter 'system' = UniProt Q6XEC0.
Sequence (Q6XEC0 23-265, looked up, species assumed): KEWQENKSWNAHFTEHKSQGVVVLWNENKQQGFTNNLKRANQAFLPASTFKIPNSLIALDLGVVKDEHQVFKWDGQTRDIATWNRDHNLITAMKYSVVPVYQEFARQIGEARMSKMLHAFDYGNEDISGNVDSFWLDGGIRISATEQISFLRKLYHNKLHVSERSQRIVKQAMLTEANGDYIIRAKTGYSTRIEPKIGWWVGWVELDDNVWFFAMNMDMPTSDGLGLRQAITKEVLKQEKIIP
Answers are plain numbers, in nM.

Examples from the recorded data:
molecule="CC(=O)c1ccn(C2=CC3CN(C2)C(=O)N3OS(=O)(=O)[O-])n1.[Na+] (stereo not shown) [Example 28, sulfate]" readoutnumber=3.8
molecule="O=C(Nc1nccs1)c1ccn(C2=CC3CN(C2)C(=O)N3OS(=O)(=O)[O-])n1.[Na+] (stereo not shown)" readoutnumber=1.7
molecule="O=C1N2CC(n3cc(CNCCO)nn3)=CC(C2)N1OS(=O)(=O)O (stereo not shown)" readoutnumber=1.6

Now turn to the next molecule.
Input line: Value lookup for IC50; key = O=C1N2CC(n3ccc([C@H](O)CO)n3)=CC(C2)N1OS(=O)(=O)[O-].[Na+] (stereo partly shown)
Output line: 50

====

# tgt: OXA-15 (Pseudomonas aeruginosa)
# experimentDescription: biochemical
experimentalEndpoint: pIC50
One number for each entry, as −log10 of the molar value.

Examples from the recorded data:
molecule="CC(=O)c1cnn(C2=CC3CN(C2)C(=O)N3OS(=O)(=O)[O-])c1.[Na+] (stereo not drawn)" readoutnumber=8.07
molecule="O=C1N2CC(n3cc(C(F)(F)F)cn3)=CC(C2)N1OS(=O)(=O)[O-].[Na+] (stereo not drawn)" readoutnumber=8.04
molecule="NC(=O)Cc1ccn(C2=CC3CN(C2)C(=O)N3OS(=O)(=O)[O-])n1.[Na+] (stereo not drawn)" readoutnumber=6.51
molecule="NCCc1cnn(C2=CC3CN(C2)C(=O)N3OS(=O)(=O)O)c1 (stereo not drawn)" readoutnumber=7.40
molecule="NC(=O)CONC(=O)c1ccn(C2=CC3CN(C2)C(=O)N3OS(=O)(=O)[O-])n1.[Na+] (stereo not drawn)" readoutnumber=6.59
molecule=O=C1N2CC(n3ccnn3)=C[C@H](C2)N1OS(=O)(=O)O readoutnumber=7.68

Quick request: pIC50 for each listed item, please.
1. O=C(Nc1ncns1)c1ccn(C2=CC3CN(C2)C(=O)N3OS(=O)(=O)O)n1 (stereo not drawn)
2. O=C(N[C@@H]1CCNC1)c1ccn(C2=CC3CN(C2)C(=O)N3OS(=O)(=O)O)n1 (stereo partly drawn)
3. CNCc1cn(C2=CC3CN(C2)C(=O)N3OS(=O)(=O)O)nn1 (stereo not drawn)

Output line:
1. 7.34
2. 7.49
3. 8.09

====

For each record, write down the corresponding pIC50.
# tgt: UniProtKB P05193
# recordedConditions: read-out: IC50 β-lactamase CMY-37
Numbers only, as −log10 of the molar value.

Examples from the recorded data:
compound="O=C1N2CC(n3ccc(F)n3)=CC(C2)N1OS(=O)(=O)[O-].[Na+] (centres unmarked)" readoutnumber=7.74
compound="[2H]c1nn(C2=CC3CN(C2)C(=O)N3OS(=O)(=O)[O-])c([2H])c1[2H].[Na+] (centres unmarked)" readoutnumber=8.19
compound="Nc1ncc(C(=O)Nc2ccn(C3=CC4CN(C3)C(=O)N4OS(=O)(=O)[O-])n2)s1.[Na+] (centres unmarked)" readoutnumber=8.96
compound="NC(=O)Cc1ccn(C2=CC3CN(C2)C(=O)N3OS(=O)(=O)[O-])n1.[Na+] (centres unmarked)" readoutnumber=7.72

Input line: Value lookup for pIC50; key = O=C(Nc1ccccn1)c1ccn(C2=CC3CN(C2)C(=O)N3OS(=O)(=O)[O-])n1.[Na+] (centres unmarked)
Output line: 7.92

====

# tgt: CTX-M-15 (Escherichia coli, UniProt Q9EXV5)
# recordedConditions: read-out: IC50 β-lactamase CTX-M-15; class (A); nitrocefin 200 μM, 30-min pre-incubation, enzyme 0.4 nM
experimentalEndpoint: IC50 (nM)
Give bare numbers, in nM.

Examples from the recorded data:
compound="Cc1cc(C(N)=O)nn1C1=CC2CN(C1)C(=O)N2OS(=O)(=O)[O-].[Na+] (centres unmarked)" experimentalendpoint=IC50 unitsofmeasure=nM readoutnumber=1
compound="CN(C)Cc1cn(C2=CC3CN(C2)C(=O)N3OS(=O)(=O)[O-])nn1.[Na+] (centres unmarked)" experimentalendpoint=IC50 unitsofmeasure=nM readoutnumber=0.55
compound="NCCONC(=O)c1cnn(C2=CC3CN(C2)C(=O)N3OS(=O)(=O)[O-])c1.O=C(O)C(F)(F)F.[Na+] (centres unmarked)" experimentalendpoint=IC50 unitsofmeasure=nM readoutnumber=0.75

Quick request: IC50 for each listed item, please.
1. O=C1N2CC(n3cc(S(=O)(=O)NCCO)cn3)=CC(C2)N1OS(=O)(=O)[O-].[Na+] (centres unmarked)
2. O=C1N2CC(n3ccnn3)=CC(C2)N1OS(=O)(=O)[O-].[Na+] (centres unmarked)
3. NCc1cnn(C2=CC3CN(C2)C(=O)N3OS(=O)(=O)[O-])c1.O=C(O)C(F)(F)F.[Na+] (centres unmarked)
4. CC(=O)Nc1ccn(C2=CC3CN(C2)C(=O)N3OS(=O)(=O)O)n1.CCN(CC)CC (centres unmarked)
5. O=C([O-])Cc1cn(C2=CC3CN(C2)C(=O)N3OS(=O)(=O)[O-])nn1.[Na+].[Na+] (centres unmarked)

Output line:
1: 1.1; 2: 0.67; 3: 1.5; 4: 0.72; 5: 1.8
